Target: mouse TAAR1 (Mus musculus (Mouse), UniProt Q923Y8)
Sequence (Q923Y8 whole entry): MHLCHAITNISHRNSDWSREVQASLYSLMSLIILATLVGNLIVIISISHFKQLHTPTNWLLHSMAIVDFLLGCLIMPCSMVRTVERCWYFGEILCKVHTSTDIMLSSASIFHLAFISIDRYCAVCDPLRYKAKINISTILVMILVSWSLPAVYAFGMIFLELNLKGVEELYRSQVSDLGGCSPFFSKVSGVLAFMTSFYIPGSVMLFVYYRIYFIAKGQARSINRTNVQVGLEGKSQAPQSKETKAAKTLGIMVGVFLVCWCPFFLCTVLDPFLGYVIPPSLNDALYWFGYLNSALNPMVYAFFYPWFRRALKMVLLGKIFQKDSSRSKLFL
Assay: Radioligand binding assay on mouse TAAR1
Conditions: mouse TAAR1 (first value of the cell), HEK-293 membranes; read-out: Ki (μM) mouse/rat
property_name: Ki (µM)

INSERT INTO assay_data (structure_smiles_string, target_entity, number) VALUES
  ('Fc1cc(Nc2ncc(OCC(F)(F)F)cn2)ccc1[C@@H]1CNCCO1', 'mouse TAAR1 (Mus musculus (Mouse), UniProt Q923Y8)', 0.0043);

A. Clc1cnc(Nc2ccc([C@@H]3CNCCO3)c(Cl)c2)nc1
B. Clc1ncc(Cl)c(Nc2ccc([C@H]3CNCCO3)cc2)n1
Identify the item whose Ki is the smaller number: A or B Lab note: record the label of whichever item you select. A
